assay: Distribution in plasma, lung homogenate, ELF and AMs after oral dose; type: in vivo, Sprague-Dawley rats; conditions: both sexes, Sprague-Dawley, lung homogenate; rat, single oral dose 100 mg/kg, 30 h; read-out: Concentration, lung homogenate

line_notation	concentration at 30 h
CN(C)C(=O)/C=C/C(=O)c1ccc(-c2ccncc2)cc1.Cl	11 ng/g

====

test: Distribution in plasma, lung homogenate, ELF and AMs after oral dose; format: in vivo, Sprague-Dawley rats; details: both sexes, Sprague-Dawley, lung epithelial lining fluid (ELF); rat, single oral dose 100 mg/kg, 0.083 h; ELF volume taken as 393 μL/rat; read-out: Concentration, ELF
assay_endpoint: concentration at 0.083 h (ng/mL)

compound	assay_endpoint	reported
CN(C)C(=O)/C=C/C(=O)c1ccc(-c2ccncc2)cc1.Cl [IMB-YH-4py5-2H]	concentration at 0.083 h	639

====

Experiment: Distribution in plasma, lung homogenate, ELF and AMs after oral dose
Format: in vivo, Sprague-Dawley rats
Conditions: both sexes, Sprague-Dawley, plasma; rat, single oral dose 100 mg/kg, 30 h; read-out: Concentration, Plasma
Procedure: After the oral administration of 100 mg/kg IMB-YH-4py5-2H, rats from each group (six rats per group and three rats per sex) were sacrificed at 5 min, 0.5 h, 8 h, and 30 h. […] As two representative infectious sites in lower respiratory tract infections, lung epithelial lining fluid (ELF) and alveolar macrophages (AMs) were investigated to determine the distribution of IMB-YH-4py5-2H. […] The cell counts of the resuspended AMs were assessed by using the haemocytometer. […]

line_notation	measurement_unit	concentration at 30 h
CN(C)C(=O)/C=C/C(=O)c1ccc(-c2ccncc2)cc1.Cl	ng/mL	39

====

Test: Pharmacokinetic study in rats, single oral dose
Format: in vivo, Sprague-Dawley rats
Settings: both sexes, Sprague-Dawley, plasma; rat, single oral dose 200 mg/kg
Procedure: A total of 18 adult SD rats were randomly divided into three dosing groups (half male and half female). IMB-YH-4py5-2H suspensions were freshly prepared in 1% (w/v) sodium carboxymethyl cellulose (CMC-Na). […] The pharmacokinetic parameters of IMB-YH-4py5-2H were calculated by WinNonlin (Version 6.1, Pharsight Corp., Mountain View, CA, USA) using a non-compartmental model. Data were expressed as the mean ± standard deviation (S.D.).

line_notation	AUC(0-inf), ng·h/mL
CN(C)C(=O)/C=C/C(=O)c1ccc(-c2ccncc2)cc1.Cl	5730

====

assay: Pharmacokinetic study in rats, single oral dose; assay type: in vivo, Sprague-Dawley rats; conditions: both sexes, Sprague-Dawley, plasma; rat, single oral dose 100 mg/kg; read-out: Vz/F
assay_endpoint: Vd/F (L/kg)

line_notation	assay_endpoint	measurement_unit	reported
CN(C)C(=O)/C=C/C(=O)c1ccc(-c2ccncc2)cc1.Cl	Vd/F	L/kg	336

====

Experiment: Distribution in plasma, lung homogenate, ELF and AMs after oral dose
Format: in vivo, Sprague-Dawley rats
Conditions: both sexes, Sprague-Dawley, plasma; rat, single oral dose 100 mg/kg, 8 h; read-out: Concentration, Plasma
Experimental: After the oral administration of 100 mg/kg IMB-YH-4py5-2H, rats from each group (six rats per group and three rats per sex) were sacrificed at 5 min, 0.5 h, 8 h, and 30 h. […] As two representative infectious sites in lower respiratory tract infections, lung epithelial lining fluid (ELF) and alveolar macrophages (AMs) were investigated to determine the distribution of IMB-YH-4py5-2H. […] The cell counts of the resuspended AMs were assessed by using the haemocytometer. […]

compound	concentration at 8 h / µg/mL
CN(C)C(=O)/C=C/C(=O)c1ccc(-c2ccncc2)cc1.Cl [IMB-YH-4py5-2H]	0.155

====

test: Pharmacokinetic study in rats, single oral dose; assay type: in vivo, Sprague-Dawley rats; settings: both sexes, Sprague-Dawley, plasma; rat, single oral dose 100 mg/kg; read-out: AUC0-60
assay_endpoint: AUC(0-t)

compound	reported
CN(C)C(=O)/C=C/C(=O)c1ccc(-c2ccncc2)cc1.Cl [IMB-YH-4py5-2H]	2840 ng·h/mL

====

assay: Pharmacokinetic study in rats, single oral dose; assay type: in vivo, Sprague-Dawley rats; details: both sexes, Sprague-Dawley; rat plasma, single oral dose 100 mg/kg

compound	Cmax, ng/mL
CN(C)C(=O)/C=C/C(=O)c1ccc(-c2ccncc2)cc1.Cl [IMB-YH-4py5-2H]	586

====

assay: Pharmacokinetic study in rats, single oral dose; type: in vivo, Sprague-Dawley rats; conditions: both sexes, Sprague-Dawley, plasma; rat, single oral dose 100 mg/kg
assay_endpoint: Tmax

line_notation	reported
CN(C)C(=O)/C=C/C(=O)c1ccc(-c2ccncc2)cc1.Cl	26.4 min

====

Assay: Pharmacokinetic study in rats, single oral dose
Assay type: in vivo, Sprague-Dawley rats
Details: both sexes, Sprague-Dawley, rat, plasma, po, 200 mg/kg, rat, single oral dose 200 mg/kg; read-out: t1/2 (converted)
Method: A total of 18 adult SD rats were randomly divided into three dosing groups (half male and half female). IMB-YH-4py5-2H suspensions were freshly prepared in 1% (w/v) sodium carboxymethyl cellulose (CMC-Na). […] The pharmacokinetic parameters of IMB-YH-4py5-2H were calculated by WinNonlin (Version 6.1, Pharsight Corp., Mountain View, CA, USA) using a non-compartmental model. Data were expressed as the mean ± standard deviation (S.D.).
assay_endpoint: half-life

compound	reported
CN(C)C(=O)/C=C/C(=O)c1ccc(-c2ccncc2)cc1.Cl [IMB-YH-4py5-2H]	7.71 h

====

assay: Pharmacokinetic study in rats, single oral dose; assay type: in vivo, Sprague-Dawley rats; conditions: both sexes, Sprague-Dawley, plasma; rat, single oral dose 200 mg/kg

line_notation	measurement_unit	CL/F
CN(C)C(=O)/C=C/C(=O)c1ccc(-c2ccncc2)cc1.Cl	mL/min/kg	589

====

assay: Pharmacokinetic study in rats, single oral dose; assay type: in vivo, Sprague-Dawley rats; details: both sexes, Sprague-Dawley, plasma; rat, single oral dose 50 mg/kg

line_notation	Tmax [min]
CN(C)C(=O)/C=C/C(=O)c1ccc(-c2ccncc2)cc1.Cl	16.8

====

assay: Pharmacokinetic study in rats, single oral dose; assay type: in vivo, Sprague-Dawley rats; conditions: both sexes, Sprague-Dawley, plasma; rat, single oral dose 50 mg/kg

line_notation	measurement_unit	AUC(0-inf)
CN(C)C(=O)/C=C/C(=O)c1ccc(-c2ccncc2)cc1.Cl	ng·h/mL	1440

====

assay: Distribution in plasma, lung homogenate, ELF and AMs after oral dose; assay type: in vivo, Sprague-Dawley rats; conditions: both sexes, Sprague-Dawley, lung epithelial lining fluid (ELF); rat, single oral dose 100 mg/kg, 0.5 h; ELF volume taken as 393 μL/rat; read-out: Concentration, ELF
assay_endpoint: concentration at 0.5 h (ng/mL)

line_notation	assay_endpoint	reported
CN(C)C(=O)/C=C/C(=O)c1ccc(-c2ccncc2)cc1.Cl	concentration at 0.5 h	1800

====

experiment: Distribution in plasma, lung homogenate, ELF and AMs after oral dose; type: in vivo, Sprague-Dawley rats; conditions: both sexes, Sprague-Dawley, plasma; rat, single oral dose 100 mg/kg, 0.083 h; read-out: Concentration, Plasma

compound	concentration at 0.083 h
CN(C)C(=O)/C=C/C(=O)c1ccc(-c2ccncc2)cc1.Cl [IMB-YH-4py5-2H]	917 ng/mL

====

experiment: Pharmacokinetic study in rats, single oral dose; assay type: in vivo, Sprague-Dawley rats; details: both sexes, Sprague-Dawley, plasma; rat, single oral dose 200 mg/kg

compound	MRT (h)
CN(C)C(=O)/C=C/C(=O)c1ccc(-c2ccncc2)cc1.Cl [IMB-YH-4py5-2H]	10.7

====

assay: Distribution in plasma, lung homogenate, ELF and AMs after oral dose; format: in vivo, Sprague-Dawley rats; conditions: both sexes, Sprague-Dawley, alveolar macrophages (AMs); rat, single oral dose 100 mg/kg, 8 h; converted with reported volume of a single AM (Eq 1); read-out: Concentration, AMs
assay_endpoint: concentration at 8 h (µg/mL)

line_notation	reported
CN(C)C(=O)/C=C/C(=O)c1ccc(-c2ccncc2)cc1.Cl	99.7

====

test: Pharmacokinetic study in rats, single oral dose; assay type: in vivo, Sprague-Dawley rats; details: both sexes, Sprague-Dawley, plasma; rat, single oral dose 100 mg/kg
assay_endpoint: AUC(0-inf) (µg·h/mL)

molecule	assay_endpoint	reported
CN(C)C(=O)/C=C/C(=O)c1ccc(-c2ccncc2)cc1.Cl [IMB-YH-4py5-2H]	AUC(0-inf)	2.85

====

test: Pharmacokinetic study in rats, single oral dose; assay type: in vivo, Sprague-Dawley rats; settings: both sexes, Sprague-Dawley, rat, plasma, po, 100 mg/kg, rat, single oral dose 100 mg/kg; read-out: t1/2 (converted)

line_notation	half-life
CN(C)C(=O)/C=C/C(=O)c1ccc(-c2ccncc2)cc1.Cl	6.37 h

====

experiment: Pharmacokinetic study in rats, single oral dose; format: in vivo, Sprague-Dawley rats; details: both sexes, Sprague-Dawley, plasma; rat, single oral dose 50 mg/kg; read-out: Vz/F

molecule	Vd/F, L/kg
CN(C)C(=O)/C=C/C(=O)c1ccc(-c2ccncc2)cc1.Cl [IMB-YH-4py5-2H]	379

====

test: Pharmacokinetic study in rats, single oral dose; type: in vivo, Sprague-Dawley rats; conditions: both sexes, Sprague-Dawley; rat plasma, single oral dose 200 mg/kg

line_notation	measurement_unit	Cmax
CN(C)C(=O)/C=C/C(=O)c1ccc(-c2ccncc2)cc1.Cl	ng/mL	1300
